Assay: Cytotoxicity against HEK cells after 72 hrs by MTT assay
Assay type: cell-based
Conditions: Homo sapiens, HEK293, 72 h
READOUT_TYPE: pIC50
Reminder that pIC50 means the negative base-10 logarithm of the concentration expressed in mol/L.

Study these solved cases before continuing.
[[record]]
record_smiles = "COc1cc2nc(C)n(-c3ccccc3Cn3cc(-c4ccc(C)cc4)nn3)c(=O)c2cc1OC"
meas_value = 3.69

[[record]]
record_smiles = "COc1cccc(-c2cn(Cc3ccccc3-n3c(C)nc4cc(OC)c(OC)cc4c3=O)nn2)c1"
meas_value = 4.29

[[record]]
record_smiles = "COc1cc2nc(C)n(-c3ccccc3Cn3cc(-c4ccccc4)nn3)c(=O)c2cc1OC"
meas_value = 4.19

[[record]]
record_smiles = "CCCCCCc1cn(Cc2ccccc2-n2c(C)nc3cc(OC)c(OC)cc3c2=O)nn1"
meas_value = 4.28


Attention now shifts to the item below.
Req: I would be grateful if you could share the reported pIC50 for COc1cc2nc(C)n(-c3ccccc3Cn3cc(-c4ccccn4)nn3)c(=O)c2cc1OC .
Resp: 3.60

###

Tested on: HeLa
Assay: Selectivity index, ratio of IC50 for HEK cells to IC50 for human HeLa cells
Assay type: functional
// NB: equality with 7 counts as Not satisfied; only Ratio IC50 strictly below is Satisfied

Record excerpt, results attached:
[[record]]
compound = "CCCCCC(O)c1cn(Cc2ccccc2-n2c(C)nc3cc(OC)c(OC)cc3c2=O)nn1 (stereo not given)"
qualitative_label = "Satisfied"

[[record]]
compound = "O=c1c2ccccc2nc2n1Cc1cc3ccccc3nc1-2 [LUOTONIN A]"
qualitative_label = "Not satisfied"

[[record]]
compound = "COc1cc2nc(C)n(-c3ccccc3Cn3cc(-c4ccc(C)cc4)nn3)c(=O)c2cc1OC"
qualitative_label = "Not satisfied"

[[record]]
compound = "COc1cc2nc(C)n(-c3ccccc3Cn3cc(-c4cccnc4)nn3)c(=O)c2cc1OC"
qualitative_label = "Satisfied"


Req: Is Ratio IC50 of COc1cccc(-c2cn(Cc3ccccc3-n3c(C)nc4cc(OC)c(OC)cc4c3=O)nn2)c1 strictly below 7?
Resp: Satisfied

Req: Is Ratio IC50 of COc1cc2nc(C)n(-c3ccccc3Cn3nnc4ncccc43)c(=O)c2cc1OC strictly below 7?
Resp: Satisfied

Req: Is Ratio IC50 of COc1cc2nc(C)n(-c3ccccc3Cn3cc(-c4ccc(-c5ccccc5)cc4)nn3)c(=O)c2cc1OC strictly below 7?
Resp: Satisfied

Req: Is Ratio IC50 of COc1cc2nc(C)n(-c3ccccc3Cn3cc(CO)nn3)c(=O)c2cc1OC strictly below 7?
Resp: Not satisfied

Req: Is Ratio IC50 of COc1cc2nc(C)n(-c3ccccc3Cn3cc(-c4ccccn4)nn3)c(=O)c2cc1OC strictly below 7?
Resp: Not satisfied

Req: Is Ratio IC50 of COc1ccc(-c2cn(Cc3ccccc3-n3c(C)nc4ccccc4c3=O)nn2)cc1 strictly below 7?
Resp: Not satisfied

Req: Is Ratio IC50 of Cc1nc2ccccc2c(=O)n1-c1ccccc1Cn1ccnn1 strictly below 7?
Resp: Satisfied

Req: Is Ratio IC50 of CCCc1cn(Cc2ccccc2-n2c(C)nc3cc(OC)c(OC)cc3c2=O)nn1 strictly below 7?
Resp: Satisfied

Req: Is Ratio IC50 of Cc1nc2ccccc2c(=O)n1-c1ccccc1Cn1cc(-c2ccccc2)nn1 strictly below 7?
Resp: Not satisfied

Req: Is Ratio IC50 of COc1ccc2cc(-c3cn(Cc4ccccc4-n4c(C)nc5ccccc5c4=O)nn3)ccc2c1 strictly below 7?
Resp: Not satisfied

Req: Is Ratio IC50 of COc1cc2nc(C)n(-c3ccccc3Cn3cc(-c4ccccc4)nn3)c(=O)c2cc1OC strictly below 7?
Resp: Satisfied

Req: Is Ratio IC50 of Cc1nc2ccccc2c(=O)n1-c1ccccc1Cn1cc(S)nn1 strictly below 7?
Resp: Not satisfied

Req: Is Ratio IC50 of COc1cc2nc(C)n(-c3ccccc3Cn3cc(-c4cccc(C)c4)nn3)c(=O)c2cc1OC strictly below 7?
Resp: Satisfied

Req: Is Ratio IC50 of COc1cc2nc(C)n(-c3ccccc3Cn3ccnn3)c(=O)c2cc1OC strictly below 7?
Resp: Not satisfied

Req: Is Ratio IC50 of COc1ccc(-c2cn(Cc3ccccc3-n3c(C)nc4cc(OC)c(OC)cc4c3=O)nn2)cc1 strictly below 7?
Resp: Satisfied

###

System: HEK293
Test: Selectivity index, ratio of IC50 for HEK cells to IC50 for human MCF7 cells
Format: functional
Catalogue of Ratio IC50 readings, one per entry.
// no unit, no text: just the number

Study these solved cases before continuing.
[[record]]
record_smiles = "COc1cc2nc(C)n(-c3ccccc3Cn3cc(CO)nn3)c(=O)c2cc1OC"
readout_type = "Ratio IC50"
meas_value = 6.94

[[record]]
record_smiles = "O=c1c2ccccc2nc2n1Cc1cc3ccccc3nc1-2"
readout_type = "Ratio IC50"
meas_value = 6.25

[[record]]
record_smiles = "COc1cc2nc(C)n(-c3ccccc3Cn3cc(-c4cccnc4)nn3)c(=O)c2cc1OC"
readout_type = "Ratio IC50"
meas_value = 5.3

[[record]]
record_smiles = "COc1ccc2cc(-c3cn(Cc4ccccc4-n4c(C)nc5cc(OC)c(OC)cc5c4=O)nn3)ccc2c1"
readout_type = "Ratio IC50"
meas_value = 3.74

[[record]]
record_smiles = "COc1cccc(-c2cn(Cc3ccccc3-n3c(C)nc4cc(OC)c(OC)cc4c3=O)nn2)c1"
readout_type = "Ratio IC50"
meas_value = 3.37


Req: I would be grateful if you could share the reported Ratio IC50 for COc1cc2nc(C)n(-c3ccccc3Cn3cc(-c4cc5ccccc5c5ccccc45)nn3)c(=O)c2cc1OC .
Resp: 6.72

Req: I would be grateful if you could share the reported Ratio IC50 for COc1cc2nc(C)n(-c3ccccc3Cn3cc(S)nn3)c(=O)c2cc1OC .
Resp: 21.9

Req: I would be grateful if you could share the reported Ratio IC50 for COc1ccc2cc(-c3cn(Cc4ccccc4-n4c(C)nc5ccccc5c4=O)nn3)ccc2c1 .
Resp: 20.41

Req: I would be grateful if you could share the reported Ratio IC50 for CCCCCCc1cn(Cc2ccccc2-n2c(C)nc3cc(OC)c(OC)cc3c2=O)nn1 .
Resp: 2.98

###

Test system: HEK293
Assay: Selectivity index, ratio of IC50 for HEK cells to IC50 for human MCF7 cells
Assay type: functional
READOUT_TYPE: Ratio IC50

Study these solved cases before continuing.
[[record]]
record_smiles = "COc1cc2nc(C)n(-c3ccccc3Cn3nnc4ncccc43)c(=O)c2cc1OC"
meas_value = 4.25

[[record]]
record_smiles = "COc1cc2nc(C)n(-c3ccccc3Cn3cc(-c4ccc(-c5ccccc5)cc4)nn3)c(=O)c2cc1OC"
meas_value = 6.78


Req: I would be grateful if you could share the reported Ratio IC50 for COc1cc2nc(C)n(-c3ccccc3Cn3cc(-c4cccc(C)c4)nn3)c(=O)c2cc1OC .
Resp: 3.1

Req: I would be grateful if you could share the reported Ratio IC50 for CCCc1cn(Cc2ccccc2-n2c(C)nc3cc(OC)c(OC)cc3c2=O)nn1 .
Resp: 5.13

Req: I would be grateful if you could share the reported Ratio IC50 for COc1cc2nc(C)n(-c3ccccc3Cn3cc(-c4ccc(C)cc4)nn3)c(=O)c2cc1OC .
Resp: 14.16

###

Assay: Cytotoxicity against HEK cells after 72 hrs by MTT assay
Assay type: cell-based
Details: Homo sapiens, HEK293, 72 h
// NB: equality with 70 µM counts as False; only IC50 strictly below is True

Record excerpt, results attached:
[[record]]
compound = "COc1ccc(-c2cn(Cc3ccccc3-n3c(C)nc4ccccc4c3=O)nn2)cc1"
qualitative_label = "False"

[[record]]
compound = "CCCCCC(O)c1cn(Cc2ccccc2-n2c(C)nc3cc(OC)c(OC)cc3c2=O)nn1 (centres undefined)"
qualitative_label = "True"

[[record]]
compound = "Cc1nc2ccccc2c(=O)n1-c1ccccc1Cn1cc(S)nn1"
qualitative_label = "False"

[[record]]
compound = "COc1cc2nc(C)n(-c3ccccc3Cn3cc(-c4cc5ccccc5c5ccccc45)nn3)c(=O)c2cc1OC"
qualitative_label = "False"

[[record]]
compound = "Cc1nc2ccccc2c(=O)n1-c1ccccc1Cn1ccnn1"
qualitative_label = "False"


Let us examine a further case.
Req: Is IC50 of CCCc1cn(Cc2ccccc2-n2c(C)nc3cc(OC)c(OC)cc3c2=O)nn1 strictly below 70 µM?
Resp: False

###

System: HEK293
Test: Selectivity index, ratio of IC50 for HEK cells to IC50 for human K562 cells
Assay type: functional
READOUT_TYPE: Ratio IC50
// no unit, no text: just the number

Study these solved cases before continuing.
[[record]]
molecule = "COc1cc2nc(C)n(-c3ccccc3Cn3cc(S)nn3)c(=O)c2cc1OC"
meas_value = 7.03

[[record]]
molecule = "Cc1nc2ccccc2c(=O)n1-c1ccccc1Cn1cc(S)nn1"
meas_value = 7.2

[[record]]
molecule = "CCCc1cn(Cc2ccccc2-n2c(C)nc3cc(OC)c(OC)cc3c2=O)nn1"
meas_value = 3.3


Attention now shifts to the item below.
Req: Under HEK293: Ratio IC50 value of COc1cc2nc(C)n(-c3ccccc3Cn3cc(CCO)nn3)c(=O)c2cc1OC ?
Resp: 4.66
